biological target: IKKε (Homo sapiens, UniProt Q14164); construct: His-tag; made in house; host or cells: Sf9 insect cells; assay: In-vitro IKKε kinase assay ([γ33]ATP filter-plate); assay type: biochemical; details: Table 3; read-out: IKKε IC50
propertyMeasured: IC50 (nM)

Past entries and their recorded results:
COc1cc(Nc2nccc(-c3ccc(OC4CCOCC4)c(C#N)c3)n2)ccc1C(=O)N1CCN2CCCC2C1 (centres unmarked) | 1.1
CN(C)C(=O)Nc1cccc(Nc2nccc(-c3ccc(OC4CCOCC4)c(C#N)c3)n2)c1 | 0.8

(1) N#Cc1cc(-c2ccnc(Nc3cccc(-c4nnn[nH]4)c3)n2)ccc1OC1CCOCC1
(2) COc1cc(Nc2nccc(-c3ccc(OC4CCOCC4)c(C#N)c3)n2)ccc1C(=O)N1CCCC1
(3) COCCOC1CN(C(=O)c2ccc(Nc3nccc(-c4ccc(OC5CCOCC5)c(C#N)c4)n3)cc2OC)C1
Rank ascending by IC50. A ranking is expressed here by listing the labels in the requested order.
1, 3, 2
(1: 0.3 nM, 3: 0.5 nM, 2: 0.8 nM)

(A) N#Cc1cc(-c2ccnc(Nc3cccc(N4CCN(CCO)CC4)c3)n2)ccc1OC1CCOCC1
(B) N#Cc1cc(-c2ccnc(Nc3ccc(N4CCN(CCO)CC4)cc3)n2)ccc1OCC1CC1
// task: argmin of IC50 over [ A , B ] Lab note: record the label of whichever item you select.
B

###

target: IKKε (Homo sapiens, UniProt Q14164); construct: His-tag; made in house; host or cells: Sf9 insect cells; assay: In-vitro IKKε kinase assay ([γ33]ATP filter-plate); format: biochemical; details: text bins; read-out: IC50 for inhibition of the kinase activity of IKKε
pIC50: −log10 of the molar value.
The entries below are paired with their reported pIC50.

Past entries and their recorded results:
N#Cc1cc(-c2ccnc(Nc3ccc(N4CCOCC4)cc3)n2)ccc1OCC1CCCN(C(=O)CO)C1 (centres unmarked) [Example 219] | 7.30 to 8.30
COc1ccc(-c2ccnc(Nc3cccc(S(N)(=O)=O)c3)n2)cc1C#N [compound 346] | 7.30 to 8.30
COc1ccc(Nc2nc(-c3ccc(OC4CCOCC4)c(C#N)c3)c3nc[nH]c3n2)cc1OC [compound 532] | 7.30 to 8.30

Endpoint output: pIC50 of COc1ccc(-c2ccnc(Nc3ccc(S(=O)(=O)NCCO)c(OC)c3)n2)cc1C#N [Example 281] . Value?
7.30 to 8.30

What do you have for COc1ccc(-c2ccnc(Nc3ccc(NC(C)=O)cc3)n2)cc1C#N [compound 361] ?
7.30 to 8.30

What do you have for COc1cc(-c2ccnc(Nc3ccc(N4CCOCC4)cc3)n2)cc(C#N)c1OC1CCOCC1 [compound 467] ?
> 8.30

What do you have for CC(C)C(=O)Nc1ccc(-c2ccnc(Nc3ccc(N4CCN(CCO)CC4)cc3)n2)cc1C#N [compound 427] ?
7.30 to 8.30

What do you have for N#Cc1cc(-c2ccnc(Nc3ccc(F)c(OCCCN4CCOCC4)c3)n2)ccc1OC1CCOCC1 [compound 519] ?
> 8.30

###

target: IKKε (Homo sapiens); construct: His-tag; made in house; host or cells: Sf9 insect cells; assay: In-vitro IKKε kinase assay ([γ33]ATP filter-plate); format: biochemical; conditions: text bins; read-out: IC50 for inhibition of the kinase activity of IKKε
pIC50: −log10 of the molar value.
propertyMeasured: pIC50

Past entries and their recorded results:
CS(=O)(=O)NCCOc1ccc(-c2ccnc(Nc3ccc(N4CCOCC4)cc3)n2)cc1C#N [Example 177] | 7.30 to 8.30
CN1CCN(C(=O)Nc2ccc(Nc3nccc(-c4ccc(OC5CCOCC5)c(C#N)c4)n3)cc2)CC1 [Example 20] | > 8.30
N#Cc1cc(-c2ccnc(Nc3ccccc3)n2)ccc1OC1CCOCC1 [Example 12] | 7.30 to 8.30
CCN(CC)CCN(CC)S(=O)(=O)Cc1ccc(Nc2nccc(-c3ccc(OC4CCOCC4)c(C#N)c3)n2)cc1 [compound 412] | 7.30 to 8.30
N#Cc1cc(-c2ccnc(Nc3ccc(N4CCOCC4)cc3)n2)ccc1NC(=O)NC1CCCCC1 [Example 61] | 6.30 to 7.30

Can you look up pIC50 on IKKε (Homo sapiens) for Cc1ccc(Nc2nccc(-c3ccc(O[C@@H]4CCN(C(=O)CO)C4)c(C#N)c3)n2)cc1C [compound 643] ?
> 8.30

What do you have for COc1ccc(Nc2nccc(-c3ccc(OC(C)c4ccccc4)c(C#N)c3)n2)cc1OC (centres unmarked) [Example 163] ?
6.30 to 7.30

What do you have for COC1CN(C(=O)Nc2cccc(Nc3nccc(-c4ccc(OC5CCOCC5)c(C#N)c4)n3)c2)C1 [compound 668] ?
> 8.30

###

The entries below are paired with their reported IC50.
Molecular target: IKKε (Homo sapiens)
Construct: His-tag; made in house; host or cells: Sf9 insect cells
Sequence (Q14164 1-716): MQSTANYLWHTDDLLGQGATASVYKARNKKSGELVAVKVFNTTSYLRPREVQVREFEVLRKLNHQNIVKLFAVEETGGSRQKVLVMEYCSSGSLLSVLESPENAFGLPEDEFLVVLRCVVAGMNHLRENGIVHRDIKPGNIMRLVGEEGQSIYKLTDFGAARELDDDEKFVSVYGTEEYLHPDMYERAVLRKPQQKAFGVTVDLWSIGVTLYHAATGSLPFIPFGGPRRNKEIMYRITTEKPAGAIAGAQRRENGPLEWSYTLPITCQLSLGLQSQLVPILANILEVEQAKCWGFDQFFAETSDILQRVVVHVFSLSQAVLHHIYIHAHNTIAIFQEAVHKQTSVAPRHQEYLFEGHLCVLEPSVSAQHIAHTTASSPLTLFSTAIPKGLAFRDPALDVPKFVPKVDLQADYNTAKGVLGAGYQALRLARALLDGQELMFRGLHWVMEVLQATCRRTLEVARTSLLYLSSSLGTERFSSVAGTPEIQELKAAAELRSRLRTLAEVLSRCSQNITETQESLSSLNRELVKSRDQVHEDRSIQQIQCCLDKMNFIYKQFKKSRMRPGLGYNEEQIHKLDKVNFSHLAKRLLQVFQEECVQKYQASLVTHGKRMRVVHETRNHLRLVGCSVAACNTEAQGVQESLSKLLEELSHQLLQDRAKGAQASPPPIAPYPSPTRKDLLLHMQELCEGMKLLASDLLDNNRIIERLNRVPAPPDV
Assay: In-vitro IKKε kinase assay ([γ33]ATP filter-plate)
Assay type: biochemical
Settings: text bins; read-out: IC50 for inhibition of the kinase activity of IKKε

N#Cc1cc(-c2nc(Nc3ccc(N4CCOCC4)cc3)nc3[nH]cnc23)ccc1OC1CCOCC1 | 5 to 50 nM
COCCNC(=O)c1ccc(Nc2nccc(-c3ccc(NC(=O)C4CC4)c(C#N)c3)n2)cc1OC | < 5 nM
N#Cc1cc(Cl)cc(-c2ccnc(Nc3ccc(N4CCOCC4)cc3)n2)c1 | 5 to 50 nM

Now, please, on to the next compound.
Endpoint output: IC50 of `CC(C)(N)C(=O)N1CCC(COc2ccc(-c3ccnc(Nc4ccc(N5CCOCC5)cc4)n3)cc2C#N)CC1` . Value?
50 to 500 nM

###

Biological target: IKKε (Homo sapiens)
Construct: His-tag; made in house; host or cells: Sf9 insect cells
Sequence (Q14164 1-716): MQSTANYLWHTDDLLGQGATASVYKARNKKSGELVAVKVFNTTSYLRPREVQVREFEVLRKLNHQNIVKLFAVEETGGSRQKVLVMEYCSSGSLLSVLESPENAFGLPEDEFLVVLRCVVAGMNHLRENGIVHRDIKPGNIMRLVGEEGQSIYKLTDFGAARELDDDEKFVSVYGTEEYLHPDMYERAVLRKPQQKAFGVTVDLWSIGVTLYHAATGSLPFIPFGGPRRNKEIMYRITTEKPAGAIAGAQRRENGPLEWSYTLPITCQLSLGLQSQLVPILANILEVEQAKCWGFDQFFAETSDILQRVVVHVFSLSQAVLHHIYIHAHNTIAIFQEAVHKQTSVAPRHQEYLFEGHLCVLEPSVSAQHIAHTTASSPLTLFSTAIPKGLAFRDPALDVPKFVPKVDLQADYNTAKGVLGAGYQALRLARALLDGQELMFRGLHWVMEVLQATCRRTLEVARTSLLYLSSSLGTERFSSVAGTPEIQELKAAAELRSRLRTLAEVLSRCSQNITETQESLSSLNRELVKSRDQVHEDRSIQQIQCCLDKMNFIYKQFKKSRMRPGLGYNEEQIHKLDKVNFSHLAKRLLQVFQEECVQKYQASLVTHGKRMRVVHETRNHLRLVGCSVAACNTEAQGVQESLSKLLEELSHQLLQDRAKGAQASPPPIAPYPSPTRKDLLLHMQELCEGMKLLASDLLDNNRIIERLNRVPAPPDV
Experiment: In-vitro IKKε kinase assay ([γ33]ATP filter-plate)
Assay type: biochemical
Settings: text bins; read-out: IC50 for inhibition of the kinase activity of IKKε
The entries below are paired with their reported IC50.

COc1cc(Nc2nccc(-c3ccc(OC)c(C#N)c3)n2)cc(C(=O)O)c1 [compound 305] | 5 to 50 nM
CC(C)C(=O)Nc1ccc(-c2ccnc(Nc3ccc(CCN4CCOCC4)cc3)n2)cc1C#N [compound 463] | 5 to 50 nM

Now, please, on to the next molecule.
Can you look up IC50 on IKKε (Homo sapiens) for N#Cc1cc(-c2ccnc(Nc3ccc(NC(=O)NCCO)cc3)n2)ccc1OC1CCOCC1 [Example 11] ?
< 5 nM
